system: cancer cell lines; assay: Cancer cell proliferation activity of representative nucleosides, CellTiterGlo 72 h (Example 7, Tables 8 and 9); format: cell-based; details: 72 h, J82, bladder
// classify: if (IC50 < 2000 nM) criterion met else criterion not met

Determine if `C[C@]1(CO)O[C@@H](n2ccc(N)nc2=O)C[C@@H]1O` shows IC50 strictly lower than 2000 nM. criterion met

# strict comparison: is reported IC50 < 2000 nM? input = `CC[C@]1(CO)O[C@@H](n2ccc(N)nc2=O)C[C@@H]1O` criterion not met

Dear colleague, could you confirm whether IC50 of `C#C[C@]1(CO)O[C@@H](n2cc(F)c(N)nc2=O)C[C@@H]1O` falls below 2000 nM? Thanks. criterion met

Criterion: IC50 strictly below 2000 nM. Is it met by `CC[C@]1(CO)O[C@@H](n2cnc3c(N)nc(N)nc32)C[C@@H]1O` ? criterion not met

In the record for `C#C[C@]1(CO)O[C@@H](n2ccc(N)nc2=O)C[C@@H]1O` , is IC50 less than 2000 nM? criterion not met

Below 2000 nM on IC50? Entry `C#C[C@]1(CO)O[C@@H](n2cc(F)c(=O)[nH]c2=O)C[C@@H]1O` criterion not met

Does `N#C[C@]1(CO)O[C@@H](n2ccc(N)nc2=O)C[C@@H]1O` have IC50 strictly under 2000 nM? criterion met

###

system: cancer cell lines; test: Cancer cell proliferation activity of representative nucleosides, CellTiterGlo 72 h (Example 7, Tables 8 and 9); type: cell-based; settings: Homo sapiens, HT-29, 72 h, HT29, 72 h (Table 9)
I'd appreciate it if you could supply pIC50 values for the items below.
# log scale: pIC50 equals minus log10 of the concentration in mol/L

# pIC50 lookup, item C#C[C@]1(CO)O[C@@H](n2cnc3c(N)nc(F)nc32)C[C@@H]1O [Islatravir (EFdA), Islatravir, reference compound] 5.33

# get_value(readout='pIC50', item= Nc1ccn([C@H]2C[C@H](O)[C@](CO)(CF)O2)c(=O)n1 [compound 32] ) 5.90

###

Answer each item with its documented IC50.
system: cancer cell lines; test: Cancer cell proliferation activity of representative nucleosides, CellTiterGlo 72 h (Example 7, Tables 8 and 9); type: cell-based; conditions: Homo sapiens, MDA-MB-468, 72 h, MDAMB468, 72 h (Table 9)
The reply should contain only the number, in µM.

What measured IC50 goes with C#C[C@]1(CO)O[C@@H](n2cnc3c(N)nc(F)nc32)C[C@@H]1O [Islatravir (EFdA), Islatravir, reference compound] ? 4

Item under review: `Nc1ccn([C@H]2C[C@H](O)[C@](CO)(CF)O2)c(=O)n1` . Reported IC50? 3.11

###

Record form. Attribute: pIC50. Fill in for each entry.
tested on: cancer cell lines; experiment: Cancer cell proliferation activity of representative nucleosides, CellTiterGlo 72 h (Example 7, Tables 8 and 9); type: cell-based; conditions: Homo sapiens, MV4-11, 72 h, MV4-11, 72 h (Table 9)
FYI, pIC50 means -log10 of a concentration in mol per litre.

What does the record list as pIC50 for Nc1ccn([C@H]2C[C@H](O)[C@](CO)(CF)O2)c(=O)n1 [compound 32] ? 6.08

Return reported pIC50; argument: Cc1cn([C@H]2C[C@H](O)[C@@](C#N)(CO)O2)c(=O)[nH]c1=O [compound 31] 6.42

Any idea what pIC50 was measured for C#C[C@]1(CO)O[C@@H](n2cnc3c(N)nc(F)nc32)C[C@@H]1O [Islatravir (EFdA), Islatravir, reference compound] ? 5.62
